System: OVCAR-3 ovarian
Assay: NCI tumour cell line growth inhibition, 48 h
Kindly state TGI for each of the entries shown.

Supply TGI value. Item: CON(C)C(=O)C(C)NC(=O)OC(C)(C)C (configuration not stated)
> 100 µM

Supply TGI value. Item: CN1CC[C@]23c4c5ccc(O)c4OC2c2[nH]ncc2C[C@H]3[C@H]1C5 (some centres not stated)
> 100 µM

Supply TGI value. Item: CO/C(=N\N=C(/c1ccccc1)C(F)(F)F)c1ccncc1
> 100 µM

Supply TGI value. Item: O=c1c2cccc3cccc(c4n1CCCN=4)c32
> 100 µM

Supply TGI value. Item: N#C[C@H](C(=O)c1ccccc1F)c1nc2ccccc2[nH]1
> 100 µM

Supply TGI value. Item: CCOC(=O)C(C)(Cc1ccc(O)cn1)NC(=O)c1ccccc1 (configuration not stated)
> 100 µM

Supply TGI value. Item: COc1cc(S(=O)(=O)Nc2ccc(-c3csc(/N=C\c4cccs4)n3)cc2)ccc1Cl
> 100 µM

Supply TGI value. Item: Cc1cc(-c2ccco2)cc(C)c1/C=C/c1cncc(-c2nn[nH]n2)c1
> 25 µM

Supply TGI value. Item: Clc1ccc(-c2nnc(-c3nsc4ccccc34)o2)cc1
32 µM

Supply TGI value. Item: O=C1NC2=NN=C(c3ccc(Br)cc3)CN2NC12c1ccccc1-c1ccccc12
> 100 µM

Supply TGI value. Item: CC(=O)c1sc2c(c1O)c(=O)n(-c1ccccc1)c(=S)n2-c1ccccc1
> 100 µM

Supply TGI value. Item: COC(=O)[C@]1(C)CCCC2(C)C3=C(CCC21)CC1(CC3)SCCS1 (some centres not stated)
> 10 µM

Supply TGI value. Item: CCCCC1Cc2cc(OC)ccc2-c2n1c1cc(OC)ccc1[n+]2C (configuration not stated) (tested in a mixture with another compound)
> 72.1 µM

Supply TGI value. Item: C1=C(c2ccccc2)C(OC2Oc3ccccc3C=C2c2ccccc2)Oc2ccccc21 (configuration not stated)
> 100 µM

Supply TGI value. Item: Cc1ccc2oc3c(ccc(=O)n3C)c(=O)c2c1
> 100 µM

Supply TGI value. Item: COc1cccc(/C=C2/S/C(=N/Nc3nc(C)c(C(C)=O)s3)NC2=O)c1O
60.3 µM

Supply TGI value. Item: CC1=C(C(=O)CC(=O)C(=O)Nc2ccccc2C)Sc2ccccc2N1
> 100 µM

Supply TGI value. Item: CCN1C(=O)N2C(OC)c3ccccc3C(Br)C2(OC)C1=O (configuration not stated)
> 100 µM

Supply TGI value. Item: CCOP(=O)(/C=C/n1cnc2c(=O)n(C(C)=O)c(N)nc21)OCC
> 100 µM

Supply TGI value. Item: N#Cc1c(N)nc2n[nH]c(N)c2c1-c1ccccc1
20.5 µM

Supply TGI value. Item: O=CC(O)C(O)C(OC1OC(CO)C(O)C(O)C1O)C(O)CO (configuration not stated) (tested in a mixture with another compound)
> 100 µM

Supply TGI value. Item: O=C(/C=C/c1cccc(Oc2ccc(Cl)cc2)c1)c1ccccc1
42.8 µM

Supply TGI value. Item: O=C(Nc1nc2c(s1)CCc1c-2c(Br)n(Cc2ccccc2)c1Br)c1ccccc1
17.3 µM

Supply TGI value. Item: Cc1n(Cc2ccc3ccccc3n2)cc[n+]1Cc1ccc2ccccc2c1
5.1 µM

Supply TGI value. Item: CC1=NNC(=O)[C@H]2[C@H]1CCC1[C@@H]2CC[C@]2(C)[C@@H](O)CC[C@@H]12 (some centres not stated)
> 100 µM

Supply TGI value. Item: CC(C)(C)c1cc(C(OCCl)(C(F)(F)F)C(F)(F)F)c2c(c1)C(C(F)(F)F)(C(F)(F)F)OC21c2ccccc2C(=O)c2ccccc21
> 100 µM

Supply TGI value. Item: Cc1cc(C)c(S(=O)(=O)N(CCCN)OCCCN)c(C)c1
> 100 µM

Supply TGI value. Item: Fc1ccc(C(OCCN2CC3CC2CN3)c2ccc(F)cc2)cc1 (configuration not stated)
> 100 µM

Supply TGI value. Item: Cc1ccc(NC(=O)c2ccc(NC3=C(Cl)C(=O)N(Cc4ccccc4)C3=O)cc2)cc1Cl
18.7 µM

Supply TGI value. Item: O=C1c2ccccc2-n2c1nc1ccc(Cl)cc1c2=O
> 100 µM

Supply TGI value. Item: CSC1(Cc2ccccn2)C(=O)Nc2cccc([N+](=O)[O-])c21 (configuration not stated)
> 100 µM

Supply TGI value. Item: CCC1=C(c2ccc(OC)cc2)CC[C@]2(CCNC2=O)[C@@H]1C
61.4 µM

Supply TGI value. Item: CCc1c(C#N)c(SC(C(N)=O)c2ccccc2)nc(N2CCC(N)CC2)c1C#N (configuration not stated)
28.2 µM

Supply TGI value. Item: Cn1c(=O)n2n(c1=O)C(S(=O)c1ccccc1)C2 (configuration not stated)
> 100 µM

Supply TGI value. Item: NC(N)=N/N=C/c1c(-c2ccc(Cl)cc2)nc2sc(Cl)cn12
2.88 µM

Supply TGI value. Item: O=C1c2ccccc2-c2c1c1ccc([N+](=O)[O-])cc1c(=O)n2CCCCl
77 µM

Supply TGI value. Item: Cc1cc2c(cc1C)[n+](=O)c(C(=O)/C=C/c1ccccc1[N+](=O)[O-])c(C)n2[O-]
> 97 µM

Supply TGI value. Item: N=C(N)c1ccc(N=Nc2c(O)ccc3cc(O)ccc23)cc1
> 100 µM

Supply TGI value. Item: Cc1ccccc1CNc1c2ccccc2nc2ccccc12
5.93 µM

Supply TGI value. Item: Cc1csc(CCC(N)C(=O)O)n1 (configuration not stated)
> 100 µM

Supply TGI value. Item: CSc1nc(C)cc(=O)n1C1OC(COC(C)=O)C(OC(C)=O)C(OC(C)=O)C1OC(C)=O (configuration not stated)
> 100 µM

Supply TGI value. Item: CCOc1cc(/C=C/C(=O)CC(=O)/C=C/c2ccc(OC(=O)CNCCN(CC)CC)c(OCC)c2)ccc1OC(=O)CNCCN(CC)CC
6.07 µM

----------
Test system: HT29 colon
Experiment: NCI tumour cell line growth inhibition, 48 h; in the data active = GI50 below about 0.43 µM; inactive = the rest
API: response.call in label 1 = active, label 0 = inactive

Name the outcome recorded for CN(c1ccc(NC(=O)NCCN2CCOCC2)cc1)c1ccnc(Nc2ccc(CS(C)(=O)=O)cc2)n1 in the assay.
label 0

Name the outcome recorded for CCOC(=O)C1=C(C)N(Cc2ccc(Cl)cc2Cl)[C@]2(C#N)C(O)=C(Cl)C(Cl)=C(O)[C@]12C#N in the assay.
label 0

Name the outcome recorded for Nc1c(C(=O)Nc2ccccn2)sc2nc3c(cc12)CCCCCC3 in the assay.
label 1

Name the outcome recorded for O=C1c2ccccc2-c2c1c1ccc([N+](=O)[O-])cc1c(=O)n2CCCCl in the assay.
label 0

Name the outcome recorded for Cc1ccc(NC2=CC(=O)C(=O)c3ccccc32)c(C)c1 in the assay.
label 0

Name the outcome recorded for COc1ccc(C(=O)/C=C/c2ccc(OCc3ccccc3)c(OC)c2)cc1OC in the assay.
label 0

Name the outcome recorded for O=C1C2C(C(=O)N1CC[Se][Se]CCN1C(=O)C3C(C1=O)[C@H]1C=C[C@@H]3C1)[C@H]1C=C[C@@H]2C1 (some centres undefined) in the assay.
label 1

Name the outcome recorded for CC1(C)N=C(N)N=C(N)N1c1ccc(OCCCCNC(=O)Nc2cccc(S(=O)(=O)F)c2)c(Cl)c1 in the assay.
label 0

Name the outcome recorded for CC(C)C/C(=N\NC(=O)c1ccncc1)c1cc(Cl)ccc1O in the assay.
label 0

Name the outcome recorded for CCN(CC)CCS(=O)(=O)CCNc1ccnc2cc(Cl)ccc12 in the assay.
label 0

Name the outcome recorded for Cc1ccc(NC(=O)c2ccc(NC3=C(Cl)C(=O)N(Cc4ccccc4)C3=O)cc2)cc1Cl in the assay.
label 0

Name the outcome recorded for c1ccc2c(c1)[O][Sn][O]2 in the assay.
label 0

Name the outcome recorded for CCN(CC)C(=S)SSCCO in the assay.
label 0

Name the outcome recorded for COC(=O)C1=Nc2ccc(F)cc2/C1=C/c1sc(=S)[nH]c1O in the assay.
label 0

----------
Kindly state TGI for each of the entries shown.
Tested on: SK-OV-3 ovarian
Test: NCI tumour cell line growth inhibition, 48 h

Supply TGI value. Item: C=CC[PH+](c1ccccc1)c1ccccc1.C=CC[PH+](c1ccccc1)c1ccccc1.[Pt+2].[S-]c1ncccn1.[S-]c1ncccn1
> 100 µM

Supply TGI value. Item: CCN(CCNc1ccc(C)c2sc3cc(Cl)ccc3c(=O)c12)CC(C)(C)O
20.4 µM

Supply TGI value. Item: COc1cc(OC)c(/C=C/C(=O)c2c(N)cc(OC)cc2OC)c(OC)c1
> 100 µM

Supply TGI value. Item: CC1(C)N=C(N)N=C(N)N1c1ccc(OCCCCNC(=O)Nc2cccc(S(=O)(=O)F)c2)c(Cl)c1
> 100 µM

Supply TGI value. Item: Cn1cc(NC(=O)c2cc(NC(=O)CCCCCCCC(=O)Nc3cc(C(=O)Nc4cc(C(=O)NCCC(=N)N)n(C)c4)n(C)c3)cn2C)cc1C(=O)NCCC(=N)N
> 100 µM

Supply TGI value. Item: CC1=CC(=O)c2c(O)c3c(c(O)c2C1=O)C1C(O)C(C3=O)C23C(=O)c4c(O)c(C)cc(O)c4C(O)=C2C(=O)CC(O)C13 (stereo not drawn)
6.86 µM

Supply TGI value. Item: Cc1n(Cc2ccc3ccccc3n2)cc[n+]1Cc1ccc2ccccc2c1
5.03 µM

Supply TGI value. Item: Clc1ccc(Cn2cc(/C=N/n3cnnc3)c3ccccc32)cc1
> 100 µM
